- Target Or System: NS3h 2a (JFH1)
- Test Method Notes: NS3 helicase inhibitors across HCV genotypes, late-stage follow-up, selectivity assay for HCV NS3 helicase inhibitor project, biochemical, real-time fluorescence, genotypes 2a and 1b, Set 2 (AID 504419)
- Assay Conditions: Recombinant NS3 helicase, real-time fluorescence unwinding
Active and inactive are the calls of the source. No rule for the calls is given here.
Please reply with one of these outcomes: t (active), f (inactive)

>  <Molecule>
C=C1c2cccc(O)c2C(O)=C2C(=O)[C@]3(O)C(O)=C(C(N)=O)C(=O)[C@@H](N(C)C)[C@@H]3[C@@H](O)[C@H]12

>  <Group Label>
f

$$$$
>  <Molecule>
COc1ccc(N=Nc2ccc(O)c3ncccc23)c(S(=O)(=O)N(C)C)c1

>  <Group Label>
f

$$$$
>  <Molecule>
Cc1ccc2nc(-c3ccc(NC(=O)c4ccc(F)cc4)cc3)sc2c1

>  <Group Label>
f

$$$$
>  <Molecule>
Cc1ccc2nc(-c3ccc4nc(-c5ccc(NC(=O)c6ccc(NC(=O)OCC7c8ccccc8-c8ccccc87)cc6)cc5)sc4c3)sc2c1S(=O)(=O)O

>  <Group Label>
t

$$$$
>  <Molecule>
CN(C)c1ccc(O)c2c1C[C@H]1C[C@H]3[C@H](N(C)C)C(=O)C(C(N)=O)=C(O)[C@@]3(O)C(=O)C1=C2O

>  <Group Label>
f

$$$$

Ask | Call for entry "CN(C)S(=O)(=O)c1cccc(NC(=S)N/N=C/c2cc(Br)ccc2O)c1" :
Reply | f

Ask | Call for entry "CC(=O)c1ccc(-c2cccc(-c3cc(=O)oc4ccc(C(C)(C)C)cc34)c2)cc1" :
Reply | f

Ask | Call for entry "Cc1ccc(/C=C/C(=O)Nc2ccc([N+](=O)[O-])c(NC(=O)/C=C/c3ccc(C)o3)c2)o1" :
Reply | f
